# procedure text: Pharmacokinetics in rats (half-life)
# Format: in vivo, rat (male Sprague Dawley)
# test context: rat, blood, read-out: T 1/2 in Rats (converted)
measured endpoint: half-life (h)
The answer is to be given in h; state only the numeric part.

Prompt: Report half-life for CC[C@@]1(C)OC(=O)C(c2ccc(F)c(F)c2)=C1c1ccc(S(C)(=O)=O)cc1 [h] please.
Response: 3.6

Prompt: Report half-life for CCC1(C)OC(=O)C(c2ccc(F)cc2)=C1c1ccc(S(C)(=O)=O)cc1 (stereo not drawn) [c] please.
Response: 3

Prompt: Report half-life for CC[C@]1(C)OC(=O)C(c2ccc(F)c(F)c2)=C1c1ccc(S(C)(=O)=O)cc1 [i] please.
Response: 4.8

====

# assay system: UniProtKB P35354
# Sequence (P35354 18-604): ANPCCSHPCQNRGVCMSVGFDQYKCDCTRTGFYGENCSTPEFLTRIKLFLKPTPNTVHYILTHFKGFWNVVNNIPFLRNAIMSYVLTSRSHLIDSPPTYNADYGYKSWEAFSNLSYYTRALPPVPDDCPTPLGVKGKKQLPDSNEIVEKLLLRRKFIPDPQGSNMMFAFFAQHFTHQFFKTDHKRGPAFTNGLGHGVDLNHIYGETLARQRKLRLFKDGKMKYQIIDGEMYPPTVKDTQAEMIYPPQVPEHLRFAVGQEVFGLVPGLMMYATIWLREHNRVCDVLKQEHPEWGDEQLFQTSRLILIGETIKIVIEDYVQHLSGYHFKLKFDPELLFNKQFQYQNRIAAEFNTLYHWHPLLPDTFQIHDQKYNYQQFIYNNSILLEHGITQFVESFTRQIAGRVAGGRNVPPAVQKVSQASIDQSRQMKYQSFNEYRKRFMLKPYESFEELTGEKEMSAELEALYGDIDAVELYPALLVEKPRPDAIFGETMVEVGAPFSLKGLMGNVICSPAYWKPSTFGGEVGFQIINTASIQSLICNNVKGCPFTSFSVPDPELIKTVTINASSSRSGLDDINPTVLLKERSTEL
# procedure text: Whole cell assay for COX-2 using CHO transfected cell line (CHO [hCOX-2])
# Type: cell-based
# Parameters: expressed in transfected cells; host or cells: Chinese hamster ovary (CHO) cells, stably transfected, CHO[hCOX-2]
# test context: CHO[hCOX-2] cells, 10 μM AA; read-out: CHO Cox-2 (IC50, inhibition of PGE2 production)
measured endpoint: IC50 (nM)
The answer is to be given in nM; state only the numeric part.

Prompt: Report IC50 for CC[C@@]1(C)OC(=O)C(c2ccc(F)cc2)=C1c1ccc(S(C)(=O)=O)cc1 please.
Response: 20

Prompt: Report IC50 for CCCC1(C)OC(=O)C(c2ccc(F)c(F)c2)=C1c1ccc(S(C)(=O)=O)cc1 (stereo not drawn) please.
Response: 237

Prompt: Report IC50 for CCC1(C)OC(=O)C(c2ccc(F)cc2)=C1c1ccc(S(C)(=O)=O)cc1 (stereo not drawn) please.
Response: 22

====

# assay system: COX-1 (Homo sapiens)
# Sequence (P23219 24-599): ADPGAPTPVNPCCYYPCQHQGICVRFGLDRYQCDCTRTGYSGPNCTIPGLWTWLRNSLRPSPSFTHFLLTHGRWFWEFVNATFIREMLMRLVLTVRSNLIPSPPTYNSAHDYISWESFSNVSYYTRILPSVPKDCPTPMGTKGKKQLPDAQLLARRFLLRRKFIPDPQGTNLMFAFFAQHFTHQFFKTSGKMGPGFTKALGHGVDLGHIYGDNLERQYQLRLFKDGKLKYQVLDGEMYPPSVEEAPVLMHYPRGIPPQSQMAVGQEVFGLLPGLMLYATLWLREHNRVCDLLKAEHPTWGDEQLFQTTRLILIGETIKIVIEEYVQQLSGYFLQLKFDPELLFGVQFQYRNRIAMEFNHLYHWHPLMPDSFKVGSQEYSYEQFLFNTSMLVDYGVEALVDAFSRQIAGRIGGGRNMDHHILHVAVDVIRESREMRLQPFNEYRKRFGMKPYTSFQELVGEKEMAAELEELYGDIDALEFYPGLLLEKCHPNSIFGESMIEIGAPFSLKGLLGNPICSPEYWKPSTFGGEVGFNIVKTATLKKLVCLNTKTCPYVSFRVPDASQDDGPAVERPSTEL
# procedure text: Assay of COX-1 activity from U937 cell microsomes
# Assay type: biochemical
# Design: Assay of COX-1 Activity from U937 cell microsomes; endogenous in cells; host or cells: U937 cells, 100,000 x g microsomal fraction
# test context: read-out: U937 Cox-1 (IC50, inhibition of PGE2 production)
measured endpoint: pIC50
# pIC50 = -log10(concentration in molar units)

Prompt: Report pIC50 for CC[C@@]1(C)OC(=O)C(c2ccc(F)c(F)c2)=C1c1ccc(S(C)(=O)=O)cc1 [h] please.
Response: 4.61

Prompt: Report pIC50 for CC1(C)OC(=O)C(c2ccc(F)cc2)=C1c1ccc(S(C)(=O)=O)cc1 [Compound T3-1, reference compound] please.
Response: 5.24

Prompt: Report pIC50 for CC[C@]1(C)OC(=O)C(c2ccc(F)c(F)c2)=C1c1ccc(S(C)(=O)=O)cc1 [i] please.
Response: 4.87

Prompt: Report pIC50 for CC[C@@]1(C)OC(=O)C(c2ccc(F)cc2)=C1c1ccc(S(C)(=O)=O)cc1 [e] please.
Response: 5.21

====

For each entry below, report its IC50 value.
# assay system: COX-1 (Homo sapiens)
# procedure text: Assay of COX-1 activity from U937 cell microsomes
# Type: biochemical
# Set-up: Assay of COX-1 Activity from U937 cell microsomes; endogenous in cells; host or cells: U937 cells, 100,000 x g microsomal fraction
# test context: read-out: U937 Cox-1 (IC50, inhibition of PGE2 production)
The answer is to be given in µM; state only the numeric part.

Prompt: Please provide the recorded IC50 for CC[C@]1(C)OC(=O)C(c2ccc(F)cc2)=C1c1ccc(S(C)(=O)=O)cc1 [d] , tested on COX-1 (Homo sapiens).
Response: 3.2

Prompt: Please provide the recorded IC50 for CCC1(C)OC(=O)C(c2ccc(F)cc2)=C1c1ccc(S(C)(=O)=O)cc1 (centres unmarked) [c] , tested on COX-1 (Homo sapiens).
Response: 7.4
